Attribution: paper PMC10527105

Listed here: items and their measured IC50.
Biological target: human dopamine transporter/SLC6A3 (DAT) (Homo sapiens)
Construct: expressed in transfected cells; host or cells: HEK293
Assay: Cellular uptake experiments: [3H]-dopamine reuptake inhibition in transporter-expressing HEK293 cells
Format: cell-based
Conditions: cells stably expressing DAT; [3H]-dopamine 1 µM; screening cut-off 50 µM; read-out: Reuptake Inhibition (IC50 ± SE, µM) DAT
Only the number, expressed in µM, is required.

Recorded results for 4 compounds are shown here.
{"compound": "[O-][S+](Cc1cccs1)C(c1ccccc1)c1cccc(F)c1 (centres unmarked) [Compound 8b]", "IC50 [µM]": 9}
{"compound": "Cc1ccccc1C(c1ccccc1)[S+]([O-])Cc1cccs1 (centres unmarked) [Compound 8l]", "IC50 [µM]": 9.5}
{"compound": "[O-][S+](Cc1cccs1)C(c1ccccc1)c1ccc(F)cc1 (centres unmarked) [Compound 8c]", "IC50 [µM]": 5.2}
{"compound": "[O-][S+](Cc1cccs1)C(c1ccccc1)c1cccc(F)c1 (centres unmarked) [Compound 7b]", "IC50 [µM]": 2.3}

Attention now shifts to the item below.
What the record says about [O-][S+](Cc1cccs1)C(c1ccccc1)c1ccc(F)cc1 (centres unmarked) [Compound 5c] : IC50 is 7.8

----------
Biological target: human serotonin transporter/SLC6A4 (SERT) (Homo sapiens, UniProt P31645)
Construct: expressed in transfected cells; host or cells: HEK293
Sequence (P31645 whole entry): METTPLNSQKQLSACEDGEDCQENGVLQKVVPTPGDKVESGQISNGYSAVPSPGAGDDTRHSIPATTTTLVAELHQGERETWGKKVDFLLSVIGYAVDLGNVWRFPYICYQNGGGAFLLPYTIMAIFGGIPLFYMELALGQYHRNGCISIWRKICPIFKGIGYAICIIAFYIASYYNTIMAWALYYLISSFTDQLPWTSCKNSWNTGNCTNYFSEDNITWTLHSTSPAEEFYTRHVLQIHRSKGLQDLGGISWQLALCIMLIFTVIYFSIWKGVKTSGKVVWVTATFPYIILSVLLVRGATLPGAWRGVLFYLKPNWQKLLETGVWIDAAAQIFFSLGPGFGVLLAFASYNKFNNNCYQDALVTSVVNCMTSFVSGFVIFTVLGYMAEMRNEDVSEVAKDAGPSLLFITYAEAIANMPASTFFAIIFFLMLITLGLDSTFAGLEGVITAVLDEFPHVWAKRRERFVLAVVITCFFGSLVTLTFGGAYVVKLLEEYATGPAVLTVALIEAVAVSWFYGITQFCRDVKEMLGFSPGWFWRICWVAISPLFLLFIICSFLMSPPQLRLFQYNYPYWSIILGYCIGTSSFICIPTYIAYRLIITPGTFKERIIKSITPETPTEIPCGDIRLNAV
Test: Cellular uptake experiments: [3H]-serotonin reuptake inhibition in transporter-expressing HEK293 cells
Assay type: cell-based
Settings: Reuptake Inhibition (IC50 ± SE, µM) SERT, cells stably expressing SERT; [3H]-serotonin 1 µM; screening cut-off 50 µM
Listed here: items and their measured IC50.

{"compound": "[O-][S+](Cc1cccs1)C(c1ccccc1)c1cccc(C(F)(F)F)c1 (stereo not drawn) [Compound 6p]", "observed-value": "> 50 µM"}
{"compound": "COc1ccccc1[C@@H](c1ccccc1)[S@@+]([O-])Cc1cccs1", "observed-value": "> 50 µM"}
{"compound": "[O-][S@@+](Cc1cccs1)[C@H](c1ccccc1)c1ccc(Cl)cc1", "observed-value": "> 50 µM"}

Sample [O-][S+](Cc1cccs1)C(c1ccccc1)c1cccc(C(F)(F)F)c1 (stereo not drawn) [Compound 8p] , system: human serotonin transporter/SLC6A4 (SERT) (Homo sapiens, UniProt P31645). Its IC50 is 31 µM

Sample [O-][S+](Cc1cccs1)C(c1ccccc1)c1ccc(C(F)(F)F)cc1 (stereo not drawn) [Compound 6q] , system: human serotonin transporter/SLC6A4 (SERT) (Homo sapiens, UniProt P31645). Its IC50 is > 50 µM

Sample COc1ccccc1[C@H](c1ccccc1)[S@@+]([O-])Cc1cccs1 , system: human serotonin transporter/SLC6A4 (SERT) (Homo sapiens, UniProt P31645). Its IC50 is > 50 µM

----------
Listed here: items and their measured IC50.
Biological target: human dopamine transporter/SLC6A3 (DAT) (Homo sapiens, UniProt Q01959)
Construct: expressed in transfected cells; host or cells: HEK293
Sequence (Q01959 whole entry): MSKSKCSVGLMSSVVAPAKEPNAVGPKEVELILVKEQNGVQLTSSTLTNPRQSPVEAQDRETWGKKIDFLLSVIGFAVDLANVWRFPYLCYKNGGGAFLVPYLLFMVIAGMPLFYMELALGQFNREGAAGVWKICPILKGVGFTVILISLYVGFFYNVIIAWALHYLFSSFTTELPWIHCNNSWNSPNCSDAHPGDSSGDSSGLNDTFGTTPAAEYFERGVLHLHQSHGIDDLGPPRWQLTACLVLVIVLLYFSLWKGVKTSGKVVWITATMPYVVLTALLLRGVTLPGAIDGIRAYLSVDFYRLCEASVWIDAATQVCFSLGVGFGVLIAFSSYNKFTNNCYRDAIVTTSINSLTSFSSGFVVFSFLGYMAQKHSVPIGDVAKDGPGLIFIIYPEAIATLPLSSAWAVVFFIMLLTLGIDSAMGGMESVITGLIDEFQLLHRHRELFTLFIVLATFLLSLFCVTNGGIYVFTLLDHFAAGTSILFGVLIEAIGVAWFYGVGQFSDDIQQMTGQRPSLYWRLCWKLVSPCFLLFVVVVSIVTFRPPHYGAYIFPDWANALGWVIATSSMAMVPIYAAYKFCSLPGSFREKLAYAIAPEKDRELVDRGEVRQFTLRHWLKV
Experiment: Cellular uptake experiments: [3H]-dopamine reuptake inhibition in transporter-expressing HEK293 cells
Assay type: cell-based
Conditions: Reuptake Inhibition (IC50 ± SE, µM) DAT, cells stably expressing DAT; [3H]-dopamine 1 µM; screening cut-off 50 µM
Only the number, expressed in µM, is required.

What the record says about [O-][S@+](Cc1cccs1)[C@H](c1ccccc1)c1cccc(Cl)c1 : IC50 is 0.83

What the record says about [O-][S+](Cc1cccs1)C(c1ccccc1)c1ccccc1I (stereo not drawn) [Compound 6i] : IC50 is 20.3

What the record says about [O-][S@+](Cc1cccs1)[C@H](c1ccccc1)c1cccc(Br)c1 : IC50 is 0.3

What the record says about [O-][S@@+](Cc1cccs1)[C@H](c1ccccc1)c1ccc(Cl)cc1 : IC50 is 12

What the record says about [O-][S@+](Cc1cccs1)[C@H](c1ccccc1)c1ccc(I)cc1 : IC50 is 2.6

What the record says about [O-][S+](Cc1cccs1)C(c1ccccc1)c1ccc(C(F)(F)F)cc1 (stereo not drawn) [Compound 6q] : IC50 is 40

----------
pKi: −log10 of the molar value.
Measurement record for human SERT (Homo sapiens, UniProt P31645); quantity recorded: pKi.

{"mol": "[O-][S@@+](Cc1cccs1)[C@@H](c1ccccc1)c1cccc(Br)c1", "observed-value": "< 5.00"}

Attention now shifts to the item below.
What the record says about [O-][S@+](Cc1cccs1)[C@H](c1ccccc1)c1cccc(Br)c1 : pKi is < 5.00

----------
Target: human serotonin transporter/SLC6A4 (SERT) (Homo sapiens, UniProt P31645)
Construct: expressed in transfected cells; host or cells: HEK293
Assay: Cellular uptake experiments: [3H]-serotonin reuptake inhibition in transporter-expressing HEK293 cells
Assay type: cell-based
Details: Reuptake Inhibition (IC50 ± SE, µM) SERT, cells stably expressing SERT; [3H]-serotonin 1 µM; screening cut-off 50 µM
Listed here: items and their measured IC50.

What the record says about [O-][S@@+](Cc1cccs1)[C@@H](c1ccccc1)c1ccc(I)cc1 : IC50 is > 50 µM

What the record says about [O-][S+](Cc1cccs1)C(c1ccccc1)c1ccc(C(F)(F)F)cc1 (stereo not drawn) [Compound 7q] : IC50 is > 50 µM

What the record says about [O-][S@+](Cc1cccs1)[C@@H](c1ccccc1)c1cccc(Br)c1 : IC50 is > 50 µM

What the record says about COc1cccc(C(c2ccccc2)[S+]([O-])Cc2cccs2)c1 (stereo not drawn) [Compound 8s] : IC50 is > 50 µM

What the record says about [O-][S@+](Cc1cccs1)[C@@H](c1ccccc1)c1ccc(Cl)cc1 : IC50 is > 50 µM

----------
Target: human dopamine transporter/SLC6A3 (DAT) (Homo sapiens, UniProt Q01959)
Construct: expressed in transfected cells; host or cells: HEK293
Assay: Cellular uptake experiments: [3H]-dopamine reuptake inhibition in transporter-expressing HEK293 cells
Type: cell-based
Settings: cells stably expressing DAT; [3H]-dopamine 1 µM; screening cut-off 50 µM; read-out: Reuptake Inhibition (IC50 ± SE, µM) DAT
experimental-readout: log10(IC50) (log10 of the value in µM)
# log10 transformed; quantity=IC50; unit=µM

Recorded results for 5 molecules are shown here.
{"molecule": "Cc1ccc([C@H](c2ccccc2)[S@@+]([O-])Cc2cccs2)cc1", "log10(IC50)": 0.21}
{"molecule": "[O-][S@@+](Cc1cccs1)[C@H](c1ccccc1)c1ccccc1Cl", "log10(IC50)": 0.41}
{"molecule": "[O-][S+](Cc1cccs1)C(c1ccccc1)c1cccc(F)c1 (stereo not drawn) [Compound 6b]", "log10(IC50)": 1.45}
{"molecule": "Cc1ccc(C(c2ccccc2)[S+]([O-])Cc2cccs2)cc1 (stereo not drawn) [Compound 5n]", "log10(IC50)": 0.60}
{"molecule": "Cc1ccccc1C(c1ccccc1)[S+]([O-])Cc1cccs1 (stereo not drawn) [Compound 5l]", "log10(IC50)": 1.19}

What the record says about [O-][S@@+](Cc1cccs1)[C@@H](c1ccccc1)c1ccccc1Cl : log10(IC50) is 1.16

What the record says about [O-][S@+](Cc1cccs1)[C@@H](c1ccccc1)c1ccccc1F : log10(IC50) is 0.92

What the record says about [O-][S@+](Cc1cccs1)[C@H](c1ccccc1)c1ccccc1F : log10(IC50) is 1.52

What the record says about [O-][S+](Cc1cccs1)C(c1ccccc1)c1ccc(F)cc1 (stereo not drawn) [Compound 6c] : log10(IC50) is 1.00

----------
Target: human dopamine transporter/SLC6A3 (DAT) (Homo sapiens, UniProt Q01959)
Construct: expressed in transfected cells; host or cells: HEK293
Assay: Cellular uptake experiments: [3H]-dopamine reuptake inhibition in transporter-expressing HEK293 cells
Type: cell-based
Settings: cells stably expressing DAT; [3H]-dopamine 1 µM; screening cut-off 50 µM; read-out: Reuptake Inhibition (IC50 ± SE, µM) DAT
experimental-readout: IC50 (µM)
Only the number, expressed in µM, is required.

{"compound": "[O-][S@@+](Cc1cccs1)[C@@H](c1ccccc1)c1ccccc1F", "result-unit": "µM", "IC50": 13.3}
{"compound": "[O-][S+](Cc1cccs1)C(c1ccccc1)c1cccc(F)c1 (stereo not drawn) [Compound 5b]", "result-unit": "µM", "IC50": 3.2}
{"compound": "[O-][S@@+](Cc1cccs1)[C@H](c1ccccc1)c1ccccc1F", "result-unit": "µM", "IC50": 1.09}
{"compound": "[O-][S+](Cc1cccs1)C(c1ccccc1)c1ccc(F)cc1 (stereo not drawn) [Compound 7c]", "result-unit": "µM", "IC50": 2.1}

What the record says about Cc1ccccc1C(c1ccccc1)[S+]([O-])Cc1cccs1 (stereo not drawn) [Compound 7l] : IC50 is 3.8

----------
Target: human dopamine transporter/SLC6A3 (DAT) (Homo sapiens)
Construct: expressed in transfected cells; host or cells: HEK293
Assay: Cellular uptake experiments: [3H]-dopamine reuptake inhibition in transporter-expressing HEK293 cells
Assay type: cell-based
Conditions: Reuptake Inhibition (IC50 ± SE, µM) DAT, cells stably expressing DAT; [3H]-dopamine 1 µM; screening cut-off 50 µM
Listed here: items and their measured log10 IC50.
# log10 transformed; quantity=IC50; unit=µM

Recorded results for 6 compounds are shown here.
{"compound": "COc1ccc([C@@H](c2ccccc2)[S@@+]([O-])Cc2cccs2)cc1", "log10 IC50": 1.18}
{"compound": "[O-][S+](Cc1cccs1)C(c1ccccc1)c1cccc(C(F)(F)F)c1 (centres unmarked) [Compound 7p]", "log10 IC50": 1.00}
{"compound": "[O-][S@+](Cc1cccs1)[C@@H](c1ccccc1)c1cccc(Br)c1", "log10 IC50": 1.18}
{"compound": "[O-][S@@+](Cc1cccs1)[C@@H](c1ccccc1)c1cccc(Br)c1", "log10 IC50": -0.32}
{"compound": "[O-][S+](Cc1cccs1)C(c1ccccc1)c1cccc(C(F)(F)F)c1 (centres unmarked) [Compound 6p]", "log10 IC50": 1.34}
{"compound": "[O-][S@+](Cc1cccs1)[C@@H](c1ccccc1)c1ccc(Cl)cc1", "log10 IC50": 1.66}

What the record says about [O-][S+](Cc1cccs1)C(c1ccccc1)c1ccc(C(F)(F)F)cc1 (centres unmarked) [Compound 8q] : log10 IC50 is 1.32

What the record says about [O-][S@+](Cc1cccs1)[C@@H](c1ccccc1)c1cccc(Cl)c1 : log10 IC50 is 1.15

What the record says about COc1cccc(C(c2ccccc2)[S+]([O-])Cc2cccs2)c1 (centres unmarked) [Compound 6s] : log10 IC50 is 0.73

What the record says about [O-][S+](Cc1cccs1)C(c1ccc(F)cc1)c1ccc(Cl)cc1 (centres unmarked) [Compound 5u] : log10 IC50 is 0.65
